target: full length mouse TREX1 (Mus musculus, UniProt Q91XB0); construct: N-terminally His-Tev tagged full length mouse TREX1; made in house; host or cells: E. coli; assay: mTREX1 Biochemical Assay (fluorescence, dsDNA substrate degradation); conditions: biochemical, read-out: mTREX1 IC50
Provide the recorded IC50 for the entries that follow.

Some solved cases for reference:
Cc1cc(C(c2cc(F)ccc2Cl)C(C)c2nc(C(=O)Nc3cnoc3)c(O)c(=O)n2C)n(C)n1 (single isomer, unassigned) [Example 113 D1E1] | > 10 nM
Cc1cnn(C(c2cc(F)ccc2Cl)C(C)c2nc(C(=O)Nc3cnoc3)c(O)c(=O)n2C)c1 (single isomer, unassigned) [Example 144 D1E2] | > 10 nM

In the following, a different molecule is considered.
Query: Dear colleague, I am looking for the recorded IC50 of the following molecule: CCn1ncc(C(c2ccccc2C#N)C(C)c2nc(C(=O)Nc3cnoc3)c(O)c(=O)n2C)c1C (single isomer, unassigned) [Example 68 D2E2]
Result: > 10 nM

---

Please go through the items and note down their pIC50.
biological target: full length mouse TREX1 (Mus musculus); construct: N-terminally His-Tev tagged full length mouse TREX1; made in house; host or cells: E. coli; test: mTREX1 Biochemical Assay (fluorescence, dsDNA substrate degradation); details: biochemical, read-out: mTREX1 IC50
pIC50: −log10 of the molar value.

Observe how each entry below is paired with its result.
CCn1cc(C(c2ccc(F)cc2C#N)C(C)c2nc(C(=O)Nc3cnoc3)c(O)c(=O)n2C)c(C)n1 (single isomer, unassigned) [Example 55 D1E2] | < 8.00
Cc1cnn(C)c1C(c1ccccc1C#N)C(C)c1nc(C(=O)Nc2cnoc2)c(O)c(=O)n1C (single isomer, unassigned) [Example 84 D1E1] | 8.00 to 9.00
COCCn1cc(C(c2cc(F)ccc2C#N)C(C)c2nc(C(=O)Nc3cnoc3)c(O)c(=O)n2C)cn1 (single isomer, unassigned) [Example 18 D2E1] | < 8.00
Cc1n[nH]c(C)c1C(c1ccccc1C#N)C(C)c1nc(C(=O)Nc2cnoc2)c(O)c(=O)n1C (single isomer, unassigned) [Example 95 D1E2] | < 8.00
Cc1c(C(c2ccccc2C#N)C(C)c2nc(C(=O)Nc3cnoc3)c(O)c(=O)n2C)cnn1C (single isomer, unassigned) [Example 4 D1E2] | < 8.00

Would you kindly look at the next entry?
Query: Param item = COCCn1cc(C(c2ccccc2C#N)C(C)c2nc(C(=O)Nc3cnoc3)c(O)c(=O)n2C)cn1 (single isomer, unassigned) [Example 9 D2E2] ; retrieve measured pIC50.
Result: < 8.00

---

Please respond with reported kon for every item in the list.
Target: full length human TREX1 (Homo sapiens, UniProt Q9NSU2)
Construct: N-terminally His-Tev tagged full length human TREX1; made in house; host or cells: E. coli
Test: TREX1 Kinetics Assays (TR-FRET association and dissociation, global fit with Kintek Explorer)
Assay type: binding
Settings: hTREX1, TR-FRET, 25° C., global fit
Experimental: Compound binding kinetics were assessed using a pair of TR-FRET assays which measure the proportion of protein bound to a biotinylated TREX1 inhibitor (“probe”). […]
Lab note: write values as number then unit, every time.

CC(c1nc(C(=O)Nc2cnoc2)c(O)c(=O)n1C)C(c1cnn(CC2CC2)c1)c1ccccc1C#N (single isomer, unassigned) | 108000 M⁻¹ s⁻¹
CCn1cc(C(c2ccc(F)cc2C#N)C(C)c2nc(C(=O)Nc3cnoc3)c(O)c(=O)n2C)cn1 (single isomer, unassigned) | 147000 M⁻¹ s⁻¹
CC(c1nc(C(=O)Nc2cnoc2)c(O)c(=O)n1C)C(c1cnn(C)c1)c1ccccc1C#N (single isomer, unassigned) | 197000 M⁻¹ s⁻¹
CC(c1nc(C(=O)Nc2cnoc2)c(O)c(=O)n1C)C(c1cnn(C)c1)c1ccccc1Cl (single isomer, unassigned) | 230000 M⁻¹ s⁻¹
CC(c1nc(C(=O)Nc2cnoc2)c(O)c(=O)n1C)C(c1cnn(C)c1)c1cc(F)ccc1C#N (single isomer, unassigned) | 220000 M⁻¹ s⁻¹

Now consider the entry below.
Query: Requested field: kon. Item: Cc1cncc(C(c2ccccc2C#N)C(C)c2nc(C(=O)Nc3cnoc3)c(O)c(=O)n2C)n1 (single isomer, unassigned)
Result: 135000 M⁻¹ s⁻¹

---

Hi there, I'd appreciate the recorded Kd for every entry that follows.
Target: full length human TREX1 (Homo sapiens, UniProt Q9NSU2)
Sequence (Q9NSU2 1-314): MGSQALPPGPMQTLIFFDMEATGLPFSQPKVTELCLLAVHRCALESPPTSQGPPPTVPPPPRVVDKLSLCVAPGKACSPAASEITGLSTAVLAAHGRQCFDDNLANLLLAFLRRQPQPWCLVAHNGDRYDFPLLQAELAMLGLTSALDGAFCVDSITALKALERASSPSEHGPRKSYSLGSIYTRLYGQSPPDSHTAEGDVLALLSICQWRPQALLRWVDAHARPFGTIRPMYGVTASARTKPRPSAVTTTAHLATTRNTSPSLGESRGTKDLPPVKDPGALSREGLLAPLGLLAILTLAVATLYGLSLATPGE
Reply with the number and its unit after it.

Lab note: each compound below needs its Kd filled in.
1. CC(c1nc(C(=O)Nc2cnoc2)c(O)c(=O)n1C)C(c1cnn(CC(F)(F)F)c1)c1ccccc1C#N (single isomer, unassigned)
2. CCn1cc(C(c2cc(F)ccc2C#N)C(C)c2nc(C(=O)Nc3cnoc3)c(O)c(=O)n2C)cn1 (single isomer, unassigned)
3. CCn1cc(C(c2ccc(F)cc2C#N)C(C)c2nc(C(=O)Nc3cnoc3)c(O)c(=O)n2C)cn1 (single isomer, unassigned)

Result:
1: 0.614 nM; 2: 0.28 nM; 3: 0.245 nM

---

Target: full length mouse TREX1 (Mus musculus, UniProt Q91XB0)
Construct: N-terminally His-Tev tagged full length mouse TREX1; made in house; host or cells: E. coli
Sequence (Q91XB0 1-314): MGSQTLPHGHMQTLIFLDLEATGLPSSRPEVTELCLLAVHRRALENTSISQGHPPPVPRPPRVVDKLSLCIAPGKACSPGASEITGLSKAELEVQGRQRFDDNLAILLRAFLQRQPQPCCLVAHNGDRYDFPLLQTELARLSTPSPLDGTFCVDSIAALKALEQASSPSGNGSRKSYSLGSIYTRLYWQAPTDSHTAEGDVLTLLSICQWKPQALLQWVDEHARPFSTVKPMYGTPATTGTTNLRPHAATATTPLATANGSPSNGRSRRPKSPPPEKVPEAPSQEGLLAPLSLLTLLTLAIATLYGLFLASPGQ
Experiment: mTREX1 Biochemical Assay (fluorescence, dsDNA substrate degradation)
Conditions: biochemical, read-out: mTREX1 IC50
Field: IC50. Provide a value for each of the compounds that follow.

CC(c1nc(C(=O)Nc2cnoc2)c(O)c(=O)n1C)C(c1cn(C)cn1)c1ccccc1C#N (single isomer, unassigned) [Example 39 D1E2] | > 0.01 µM
CC(c1nc(C(=O)Nc2cnoc2)c(O)c(=O)n1C)C(c1ccccc1Cl)n1cnc2ccccc21 (single isomer, unassigned) [Example 143 D1E2] | > 0.01 µM

Now consider a different compound.
Query: Give the measured IC50 of CC(c1nc(C(=O)Nc2cnoc2)c(O)c(=O)n1C)C(c1cnn(C)c1)c1cc(Cl)ccc1C#N (single isomer, unassigned) [Example 26 D2E2] .
Result: > 0.01 µM

---

target: full length human TREX1 (Homo sapiens); construct: N-terminally His-Tev tagged full length human TREX1; made in house; host or cells: E. coli; experiment: hTREX1 Biochemical Assay (fluorescence, dsDNA substrate degradation); conditions: biochemical, read-out: hTREX1 IC50
pIC50: −log10 of the molar value.
metric: pIC50

CC(c1nc(C(=O)Nc2cnoc2)c(O)c(=O)n1C)C(c1ccccc1Cl)n1cnc2ccccc21 (single isomer, unassigned) [Example 143 D1E2] | < 8.00

Give measured pIC50 for every item shown.
1. CC(c1nc(C(=O)Nc2cnoc2)c(O)c(=O)n1C)C(c1ccccc1Cl)c1nncn1C (single isomer, unassigned) [Example 152 D1E2]
2. CC(c1nc(C(=O)Nc2cnoc2)c(O)c(=O)n1C)C(c1cnn(C)c1)c1ccc(O)cc1C#N (single isomer, unassigned) [Example 80 D2E1]
3. CC(c1nc(C(=O)Nc2cnoc2)c(O)c(=O)n1C)C(c1cnn(C(F)F)c1)c1ccccc1C#N (single isomer, unassigned) [Example 38 D1E1]
4. CC(c1nc(C(=O)Nc2cnoc2)c(O)c(=O)n1C)C(c1cnn(CC(C)(C)O)c1)c1ccccc1Cl (single isomer, unassigned) [Example 86 D1E1]
5. CCn1cc(C(c2ccccc2Cl)C(C)c2nc(C(=O)Nc3cnoc3)c(O)c(=O)n2C)cn1 (single isomer, unassigned) [Example 85 D1E1]
6. COCCn1ncc(C(c2cc(F)ccc2C#N)C(C)c2nc(C(=O)Nc3cnoc3)c(O)c(=O)n2C)c1C (single isomer, unassigned) [Example 104 D2E2]
7. Cc1nn(C)c(C)c1C(c1cc(F)ccc1C#N)C(C)c1nc(C(=O)Nc2cnoc2)c(O)c(=O)n1C (single isomer, unassigned) [Example 109 D1E1]

Result:
< 8.00
< 8.00
> 9.00
> 9.00
> 9.00
8.00 to 9.00
> 9.00

For each of the compounds below, note its pIC50.
1. Cc1nn(C)cc1C(c1cc(F)ccc1Cl)C(C)c1nc(C(=O)Nc2cnoc2)c(O)c(=O)n1C (single isomer, unassigned) [Example 62 D2E1]
2. Cc1cc(C(c2ccccc2C#N)C(C)c2nc(C(=O)Nc3cnoc3)c(O)c(=O)n2C)ccn1 (single isomer, unassigned) [Example 6 D2E1]
3. Cc1nn(C)cc1C(c1ccc(F)cc1C#N)C(C)c1nc(C(=O)Nc2cnoc2)c(O)c(=O)n1C (single isomer, unassigned) [Example 56 D1E1]
4. CC(c1nc(C(=O)Nc2cnoc2)c(O)c(=O)n1C)C(c1cnn(C)c1)c1ccccc1Cl (single isomer, unassigned) [Example 77 D2E1]

Result:
["< 8.00", "< 8.00", "> 9.00", "< 8.00"]
